Let's look at some compounds and their measured IC50.
Test system: IL-6
Assay: IL-6 assay (ELISA) in Ad5-wt-ER infected HAECT-1 cells (IL-1β induced)
Format: cell-based, human
Details: Homo sapiens, HAECT1
Please state the figure in µM; there is no need to write the unit.

Illustrative cases are given below, each with its answer.
COMPOUND	IC50, µM
CC1c2cccn2-c2ccc(Br)cc2N1C(=O)c1cccc(O)c1 (stereo not drawn)	0.01
CC[C@@H]1c2ccc(C#N)n2-c2ccc(F)cc2N1C(=O)c1ccc(O)cc1	0.064
CC[C@H]1c2cccn2-c2cc(F)c(F)cc2N1S(=O)(=O)c1ccc(O)c(C)c1 [102 (S)]	0.0084

## Input Item under review: C[C@H]1c2cccn2-c2ccc(F)cc2N1C(=O)c1ccc(O)cc1 [123 (S)] . Reported IC50?
## Output 0.606

## Input Item under review: CCC1c2cccn2-c2ccc(Br)cc2N1C(=O)c1cccc(O)c1 (stereo not drawn) . Reported IC50?
## Output 0.152
